# assayProtocol: physchem
# protocolConditions: n-octanol/10 mm phosphate buffer, pH 7.4
outcomeMeasure: logD at 1 h

Prompt line: # logD at 1 h lookup, item "CCOP(=O)(OCC)C(C)(C)[N+]([O-])=Cc1ccc(Cl)cc1"
Response line: -0.745

Prompt line: Consider the compound "CCOP(=O)(OCC)C(C)(C)[N+]([O-])=Cc1cc[n+]([O-])cc1" and give its measured logD at 1 h.
Response line: 2.29
